Each record here notes measured IC50.
target: human recombinant HDAC1 (Homo sapiens); construct: purchased Enzo Life Science, Inc. BML-SE456; test: HDAC1 enzyme activity inhibition (HDAC Fluorimetric Drug Discovery Kit); type: biochemical; conditions: human recombinant HDAC1, Fluor de Lys substrate, 30° C. 60 minutes; read-out: HDAC1
Sequence (Q13547 whole entry): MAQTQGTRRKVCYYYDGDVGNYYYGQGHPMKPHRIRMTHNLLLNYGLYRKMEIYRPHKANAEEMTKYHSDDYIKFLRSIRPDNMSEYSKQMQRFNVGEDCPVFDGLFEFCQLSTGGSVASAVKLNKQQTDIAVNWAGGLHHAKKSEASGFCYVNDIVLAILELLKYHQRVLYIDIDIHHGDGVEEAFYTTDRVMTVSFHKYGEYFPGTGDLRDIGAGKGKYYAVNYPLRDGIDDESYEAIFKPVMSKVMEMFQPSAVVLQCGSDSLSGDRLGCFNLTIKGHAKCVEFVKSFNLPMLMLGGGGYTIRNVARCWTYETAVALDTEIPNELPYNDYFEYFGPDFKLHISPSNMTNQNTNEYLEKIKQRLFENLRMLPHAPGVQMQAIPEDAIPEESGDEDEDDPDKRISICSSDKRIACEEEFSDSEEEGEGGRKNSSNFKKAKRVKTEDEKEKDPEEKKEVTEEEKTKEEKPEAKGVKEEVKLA

Example compounds with recorded IC50:
# Smiles repr, Assay target, IC50
records = [
    ("CN1CCN(Cc2ccc(-c3cn(Cc4ccc(-c5nnc(C(F)F)o5)cc4)nn3)cc2)CC1", "human recombinant HDAC1 (Homo sapiens)", "> 50 µM"),
    ("CN(C)Cc1cccc(-c2cn(Cc3ccc(-c4nnc(C(F)F)o4)cc3F)nn2)c1Cl", "human recombinant HDAC1 (Homo sapiens)", "> 50 µM"),
    ("Fc1cc(-c2nnc(C(F)F)o2)ccc1Cn1cc(-c2ccc(CN3CC[C@@H](F)C3)cc2)nn1", "human recombinant HDAC1 (Homo sapiens)", "> 50 µM"),
]

**Q:** State the recorded IC50 for this entry: "Fc1cc(-c2cn(Cc3ncc(-c4nnc(C(F)F)o4)cc3F)nn2)ccc1CN1CCCCC1"
**A:** > 50 µM

**Q:** State the recorded IC50 for this entry: "Fc1cc(-c2nnc(C(F)F)o2)ccc1Cn1cc(-c2ccc(CN3CC[C@H](F)C3)cn2)nn1"
**A:** > 50 µM
